- System: Bacillus subtilis
- Protocol Summary: Induction of recA promoter in Bacillus subtilis YB3001 using 4-methylumbelliferyl beta D-galactopyranoside as substrate incubated for 3 hrs prior to substrate addition measured after 1 hr by beta galactosidase reporter gene assay relative to control
- Type: functional
The source made the active and inactive calls. The rule behind the calls is not given here.
Respond using exactly one of the listed classes: active, inactive

IN: Answer briefly: the call reported for Cc1cc(O)c2c(c1)C(=O)c1c(c(O)cc(O)c1-c1c(O)cc(O)c3c1C(=O)c1cc(C)cc(O)c1C3=O)C2=O in this assay.
OUT: inactive

IN: Then Cc1cc(O)c2c(c1)C(=O)c1cc(O)cc(O)c1C2=O ?
OUT: inactive

IN: Input CO[C@@]12[C@H](COC(N)=O)C3=C(C(=O)C(C)=C(N)C3=O)N1C[C@@H]1N[C@@H]12
OUT: active

IN: Quick one: COc1cc2cc3c(c(O)c2c(O)c1-c1c(O)cc2c(O)c4c(cc2c1O)CC(C)(O)CC4=O)C(=O)CC(C)(O)C3 (single isomer, unassigned; atropisomer)
OUT: active

IN: Likewise for Cc1cc(O)c2c(c1)C(=O)c1cc(O)c(-c3c(O)cc4c(O)c5c(cc4c3O)CC(C)(O)CC5=O)c(O)c1C2=O (single isomer, unassigned; atropisomer) ?
OUT: active

IN: Then this compound: O=C(O)c1cn(C2CC2)c2cc(N3CCNCC3)c(F)cc2c1=O
OUT: active
